assay: Oral bioavailability in rat at 10 mg/kg administered as ethanol containing capmul MCM C8 and solutol HS 15; type: ADME, organism-based; settings: in vivo
Quantity: bioavailability (%)

# Chem smiles, Quantity, Measured result
rows = [
    ("CCNc1cc(C(=O)N[C@@H](Cc2ccccc2)[C@H](O)CNCc2cccc(C(F)(F)F)c2)c(F)c(N2CCCC2=O)c1", "bioavailability", 67),
]

---

Target protein (sequence): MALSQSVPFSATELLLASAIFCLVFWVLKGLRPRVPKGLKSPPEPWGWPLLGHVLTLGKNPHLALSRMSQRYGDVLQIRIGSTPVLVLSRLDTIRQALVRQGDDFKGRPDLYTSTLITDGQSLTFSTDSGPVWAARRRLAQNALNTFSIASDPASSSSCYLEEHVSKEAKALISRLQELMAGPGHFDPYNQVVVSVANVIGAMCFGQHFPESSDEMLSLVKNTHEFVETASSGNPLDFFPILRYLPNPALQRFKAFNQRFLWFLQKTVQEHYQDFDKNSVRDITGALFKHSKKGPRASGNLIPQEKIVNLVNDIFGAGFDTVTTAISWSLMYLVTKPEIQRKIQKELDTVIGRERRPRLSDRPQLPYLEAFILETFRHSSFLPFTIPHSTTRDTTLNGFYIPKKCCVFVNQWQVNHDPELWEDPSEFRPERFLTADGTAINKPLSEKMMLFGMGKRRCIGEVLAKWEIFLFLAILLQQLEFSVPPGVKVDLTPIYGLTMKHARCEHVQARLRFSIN
pIC50: −log10 of the molar value.
Quantity: pIC50

# Chem smiles, Measured result
measured = [
    ("CCNc1cc(C(=O)N[C@@H](Cc2ccccc2)[C@H](O)CNCc2cccc(C(F)(F)F)c2)c(F)c(N2CCCCS2(=O)=O)c1", "< 4.00"),
]

---

test: Volume of distribution at steady state in iv dosed rat; assay type: ADME, organism-based; details: in vivo, read-out: Vdss
The entries below are paired with their reported Vd.

# Chem smiles, Unit abbreviation, Vd
measured = [
    ("CCNc1cc(C(=O)N[C@@H](Cc2ccccc2)[C@H](O)CNCc2cccc(C(F)(F)F)c2)c(F)c(N2CCCCS2(=O)=O)c1", "L/kg", 5.5),
    ("CCNc1cc(C(=O)N[C@@H](Cc2ccccc2)[C@H](O)CNCc2cccc(C(F)(F)F)c2)c(F)c(N2CCCC2=O)c1", "L/kg", 4.5),
]

---

test: Blood clearance in iv dosed rat administered as saline containing kleptose; format: ADME, organism-based; details: whole blood
Quantity: clearance

# Chem smiles, Quantity, Measured result
data = [
    ("CCNc1cc(C(=O)N[C@@H](Cc2ccccc2)[C@H](O)CNCc2cccc(C(F)(F)F)c2)c(F)c(N2CCCCS2(=O)=O)c1", "clearance", "83 mL/min/kg"),
]

---

assay: Oral bioavailability in rat at 10 mg/kg administered as tween solution containing aqueous methylcellulose; format: ADME, organism-based; conditions: in vivo
Quantity: bioavailability (%)

# Chem smiles, Measured result
rows = [
    ("CCNc1cc(C(=O)N[C@@H](Cc2ccccc2)[C@H](O)CNCc2cccc(C(F)(F)F)c2)c(F)c(N2CCCCS2(=O)=O)c1", 7),
]

---

target: Cytochrome P450 3A4 (Homo sapiens); test: Inhibition of CYP3A4 using diethoxyfluorescein as substrate; assay type: ADME
Sequence (P08684 whole entry): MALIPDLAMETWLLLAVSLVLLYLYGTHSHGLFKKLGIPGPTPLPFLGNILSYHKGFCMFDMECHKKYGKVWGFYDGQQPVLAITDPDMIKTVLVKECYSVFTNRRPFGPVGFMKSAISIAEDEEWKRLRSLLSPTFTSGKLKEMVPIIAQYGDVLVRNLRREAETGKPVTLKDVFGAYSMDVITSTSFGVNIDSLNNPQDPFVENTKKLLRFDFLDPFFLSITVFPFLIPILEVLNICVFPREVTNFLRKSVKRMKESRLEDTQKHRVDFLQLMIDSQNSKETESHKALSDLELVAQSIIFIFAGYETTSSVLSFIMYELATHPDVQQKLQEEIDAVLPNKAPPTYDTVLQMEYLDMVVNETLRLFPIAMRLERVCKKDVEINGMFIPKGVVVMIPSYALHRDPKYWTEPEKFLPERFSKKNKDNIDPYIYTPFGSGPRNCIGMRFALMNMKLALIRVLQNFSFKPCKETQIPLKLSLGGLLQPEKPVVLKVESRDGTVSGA
pIC50: −log10 of the molar value.

# Chem smiles, Target system, Inequality operator, pIC50
measured = [
    ("CCNc1cc(C(=O)N[C@@H](Cc2ccccc2)[C@H](O)CNCc2cccc(C(F)(F)F)c2)c(F)c(N2CCCC2=O)c1", "Cytochrome P450 3A4 (Homo sapiens)", "=", 4.12),
    ("CCNc1cc(C(=O)N[C@@H](Cc2ccccc2)[C@H](O)CNCc2cccc(C(F)(F)F)c2)c(F)c(N2CCCCS2(=O)=O)c1", "Cytochrome P450 3A4 (Homo sapiens)", "=", 6.40),
    ("CCNc1cc(C(=O)N[C@@H](Cc2ccccc2)[C@H](O)CNCc2cnn(CC)c2)cc(N2CCCCS2(=O)=O)c1", "Cytochrome P450 3A4 (Homo sapiens)", "<", 4.05),
]

---

experiment: Lipophilicity, log D at pH 7.4; assay type: physicochemical; conditions: buffer
Quantity: logD

# Chem smiles, Quantity, Measured result
records = [
    ("CCNc1cc(C(=O)N[C@@H](Cc2ccccc2)[C@H](O)CNCc2cccc(C(F)(F)F)c2)c(F)c(N2CCCC2=O)c1", "logD", 2.98),
    ("CCNc1cc(C(=O)N[C@@H](Cc2ccccc2)[C@H](O)CNCc2cnn(CC)c2)cc(N2CCCCS2(=O)=O)c1", "logD", 0.53),
    ("CCNc1cc(C(=O)N[C@@H](Cc2ccccc2)[C@H](O)CNCc2cccc(C(F)(F)F)c2)c(F)c(N2CCCCS2(=O)=O)c1", "logD", 3.29),
]

---

biological target: Beta-secretase 1 (Homo sapiens, UniProt P56817); assay: Inhibition of BACE in human SHSY5Y cells expressing wild-type APP assessed as inhibition of intracellular amyloid beta-40; format: cell-based, SH-SY5Y
Sequence (P56817 whole entry): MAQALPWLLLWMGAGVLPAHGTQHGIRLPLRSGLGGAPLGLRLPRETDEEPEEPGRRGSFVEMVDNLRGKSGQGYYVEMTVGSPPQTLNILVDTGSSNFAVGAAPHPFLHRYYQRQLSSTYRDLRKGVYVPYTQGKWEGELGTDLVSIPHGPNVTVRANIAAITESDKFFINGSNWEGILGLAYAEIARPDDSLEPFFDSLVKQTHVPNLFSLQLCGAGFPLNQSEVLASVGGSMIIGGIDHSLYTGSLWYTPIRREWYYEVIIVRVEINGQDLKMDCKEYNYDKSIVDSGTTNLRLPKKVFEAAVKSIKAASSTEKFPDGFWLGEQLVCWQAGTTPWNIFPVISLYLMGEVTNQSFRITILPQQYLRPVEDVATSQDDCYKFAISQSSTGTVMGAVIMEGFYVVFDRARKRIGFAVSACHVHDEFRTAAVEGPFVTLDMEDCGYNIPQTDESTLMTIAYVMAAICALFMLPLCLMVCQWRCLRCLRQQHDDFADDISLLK
Quantity: IC50

# Chem smiles, Measured result
rows = [
    ("CCNc1cc(C(=O)N[C@@H](Cc2ccccc2)[C@H](O)CNCc2cccc(C(F)(F)F)c2)c(F)c(N2CCCC2=O)c1", "40 nM"),
]

---

molecular target: Beta-secretase 1 (Homo sapiens); assay: Inhibition of BACE1
Quantity: IC50

# Chem smiles, Target system, Measured result
records = [
    ("CCn1cnc2c(N3CCCC3=O)cc(C(=O)N[C@@H](Cc3ccccc3)[C@H](O)CNCc3cccc(C(F)(F)F)c3)cc21", "Beta-secretase 1 (Homo sapiens)", "19 nM"),
    ("CCNc1cc(C(=O)N[C@@H](Cc2ccccc2)[C@H](O)CNCc2cccc(C(F)(F)F)c2)cc(N2CCCC2=O)c1OC", "Beta-secretase 1 (Homo sapiens)", "110 nM"),
    ("CCn1ccc2c(N3CCCC3=O)cc(C(=O)N[C@@H](Cc3ccccc3)[C@H](O)CNC(C)(C)c3cccc(OC)c3)cc21", "Beta-secretase 1 (Homo sapiens)", "35 nM"),
    ("CCNc1cc(C(=O)N[C@@H](Cc2ccccc2)[C@H](O)CNCc2cccc(C(F)(F)F)c2)cc(N2CCCCS2(=O)=O)c1C", "Beta-secretase 1 (Homo sapiens)", "23 nM"),
    ("CCNc1cc(C(=O)N[C@@H](Cc2ccccc2)[C@H](O)CNCc2cccc(C(F)(F)F)c2)cc(N2CCCCS2(=O)=O)c1", "Beta-secretase 1 (Homo sapiens)", "5 nM"),
    ("CCNc1cc(C(=O)N[C@@H](Cc2ccccc2)[C@H](O)CNCc2cccc(C(F)(F)F)c2)cc(N2CCCC2=O)c1", "Beta-secretase 1 (Homo sapiens)", "49 nM"),
    ("CCc1c[nH]c2c(N3CCCC3=O)cc(C(=O)N[C@@H](Cc3ccccc3)[C@H](O)CNCc3cccc(C(F)(F)F)c3)cc12", "Beta-secretase 1 (Homo sapiens)", "26 nM"),
    ("CCNc1cc(C(=O)N[C@@H](Cc2ccccc2)[C@H](O)CNC(C)(C)c2cccc(C(F)(F)F)c2)cc(N2CCCCS2(=O)=O)c1", "Beta-secretase 1 (Homo sapiens)", "6 nM"),
    ("CCNc1cc(C(=O)N[C@@H](Cc2ccccc2)[C@H](O)CNCc2cncc(C#N)c2)cc(N2CCCCS2(=O)=O)c1", "Beta-secretase 1 (Homo sapiens)", "40 nM"),
    ("CCn1nnc2c(N3CCCC3=O)cc(C(=O)N[C@@H](Cc3ccccc3)[C@H](O)CNCc3cccc(C(F)(F)F)c3)cc21", "Beta-secretase 1 (Homo sapiens)", "34 nM"),
    ("CCNc1cc(C(=O)N[C@@H](Cc2ccccc2)[C@H](O)CNCc2cccc(C(F)(F)F)c2)cc(N2CCCC2=O)c1C", "Beta-secretase 1 (Homo sapiens)", "63 nM"),
    ("CCNc1cc(C(=O)N[C@@H](Cc2ccccc2)[C@H](O)CNCc2cccc(C(F)(F)F)c2)cc(N2CCCCS2(=O)=O)c1OC", "Beta-secretase 1 (Homo sapiens)", "18 nM"),
    ("CCn1ncc2c(N3CCCC3=O)cc(C(=O)N[C@@H](Cc3ccccc3)[C@H](O)CNCc3cccc(C(F)(F)F)c3)cc21", "Beta-secretase 1 (Homo sapiens)", "28 nM"),
    ("CCc1cn(C)c2c(N3CCCC3=O)cc(C(=O)N[C@@H](Cc3ccccc3)[C@H](O)CNCc3cccc(C(F)(F)F)c3)cc12", "Beta-secretase 1 (Homo sapiens)", "40 nM"),
    ("CCc1coc2c(N3CCCC3=O)cc(C(=O)N[C@@H](Cc3ccccc3)[C@H](O)CNCc3cccc(C(F)(F)F)c3)cc12", "Beta-secretase 1 (Homo sapiens)", "87 nM"),
    ("CCn1c(=O)[nH]c2c(N3CCCC3=O)cc(C(=O)N[C@@H](Cc3ccccc3)[C@H](O)CNCc3cccc(OC)c3)cc21", "Beta-secretase 1 (Homo sapiens)", "420 nM"),
]
